Data credit: patent US8653132B2

Tested on: A2780/C30 cisplatin-resistant ovarian cell line
Test: Clonogenic assay, cisplatin/carboplatin-resistant C30
Type: cell-based, human
Settings: 1 hour drug treatment, 1 week colony formation
Here, each record is paired with measured IC50 data.
OBSERVATION_TYPE: IC50 (µM)

COMPOUND: N.N.[Cl][Pt][Cl] [Cisplatin, cisdiamminedichloroplatinum(II), reference compound]
OBSERVATION_TYPE: IC50
QUAL: =
REPORTED_MEASUREMENT: 110
--
COMPOUND: NC1CCCCC1N.O=P([O-])(O)OP(=O)([O-])O.[Pt+2] [dach-2]
OBSERVATION_TYPE: IC50
QUAL: =
REPORTED_MEASUREMENT: 48
--
COMPOUND: NC1CCCCC1N.O=P([O-])(O)OP(=O)([O-])O.[OH-].[OH-].[Pt+4] [dach-4]
OBSERVATION_TYPE: IC50
QUAL: =
REPORTED_MEASUREMENT: 155
--
COMPOUND: N.N.O=P1(O)OP(=O)(O)[O][Pt]([OH])([OH])[O]1 [am-4]
OBSERVATION_TYPE: IC50
QUAL: >
REPORTED_MEASUREMENT: 200
--
COMPOUND: N.N.O=C([O-])C1(C(=O)[O-])CCC1.[Pt+2] [Carboplatin, reference compound]
OBSERVATION_TYPE: IC50
QUAL: >
REPORTED_MEASUREMENT: 200
--
COMPOUND: NCCN.O=P([O-])(O)OP(=O)([O-])O.[OH-].[OH-].[Pt+4] [en-4]
OBSERVATION_TYPE: IC50
QUAL: >
REPORTED_MEASUREMENT: 200
--
COMPOUND: N.N.O=P1(O)[O][Pt][O]P(=O)(O)O1 [am-2]
OBSERVATION_TYPE: IC50
QUAL: >
REPORTED_MEASUREMENT: 200

###

Assay: pKa from 31P chemical shift as a function of pH
Type: physicochemical
Settings: calculated from phosphorus-31 chemical shifts
Here, each record is paired with measured pKa1 data.

SMILES_CODE: NCCN.O=P([O-])(O)OP(=O)([O-])O.[OH-].[OH-].[Pt+4]
pKa1: <2
--
SMILES_CODE: N.N.O=P1(O)OP(=O)(O)[O][Pt]([OH])([OH])[O]1
pKa1: 2.0 ± 0.1
--
SMILES_CODE: NCCN.O=P([O-])(O)OP(=O)([O-])O.[Pt+2]
pKa1: 2.2 ± 0.1
--
SMILES_CODE: NC1CCCCC1N.O=P([O-])(O)OP(=O)([O-])O.[Pt+2]
pKa1: 2.6 ± 0.2
--
SMILES_CODE: N.N.O=P1(O)[O][Pt][O]P(=O)(O)O1
pKa1: 2.9 ± 0.3
